B1: tRNA (parent)
chain: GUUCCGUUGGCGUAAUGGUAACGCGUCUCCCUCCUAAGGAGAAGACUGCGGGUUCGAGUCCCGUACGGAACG

Variants of: B1
Test: yeast fitness relative to wild type (ratio to wild type); higher = fitter; tRNA-Arg(CCU), competitive growth, 37 C, YPD
Variants at the floor of the assay were thinned out.
Here the recorded yeast fitness is given for each entry.

Example variants with recorded yeast fitness:
mutationSpec	yeast fitness
G12A A20C C49G	0.539
U3A A20U G67U	0.598
C27A A45U G52A	≤ 0.5
U7A G12A G18U C31U C49G	≤ 0.5
A14C C27U C30U C34A C62A	≤ 0.5

Value of yeast fitness reported for the variant C5U C34A is 0.631

Value of yeast fitness reported for the variant G9A A57G is 0.933

Value of yeast fitness reported for the variant U7A G10A A14G G41C A42U C46A C61G is ≤ 0.5

Value of yeast fitness reported for the variant C49U A69U is 1.01

Value of yeast fitness reported for the variant C5U A20U C30A G67A A70G is 0.657
